Molecular target: T1, Pex13, P80667
T1 sequence (P80667 295-386, looked up): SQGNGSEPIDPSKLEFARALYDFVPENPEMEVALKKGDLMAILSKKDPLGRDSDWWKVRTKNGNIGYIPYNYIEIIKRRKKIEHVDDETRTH
Assay: SPOT array
Settings: median of control spots 1341
The following binders are shown together with reported SPOT intensity values.
propertyLabel: SPOT intensity

[
  {
    "binder": "PPPPPPPPPPLPQSL",
    "propertyLabel": "SPOT intensity",
    "reported": 28
  },
  {
    "binder": "YSRKKLPVVLSKMTL",
    "propertyLabel": "SPOT intensity",
    "reported": 8
  },
  {
    "binder": "FHLNPKRSAVLYDRP",
    "propertyLabel": "SPOT intensity",
    "reported": 35
  },
  {
    "binder": "IFLRISINFPLNYPN",
    "propertyLabel": "SPOT intensity",
    "reported": 76
  },
  {
    "binder": "AVPPPPPPPPLPESL",
    "propertyLabel": "SPOT intensity",
    "reported": 12
  },
  {
    "binder": "NILKRRPLKLEAPSK",
    "propertyLabel": "SPOT intensity",
    "reported": 2
  },
  {
    "binder": "NLPKRKPPKLQGPFS",
    "propertyLabel": "SPOT intensity",
    "reported": 11
  },
  {
    "binder": "PSRRAPLQLPQLVNK",
    "propertyLabel": "SPOT intensity",
    "reported": 1
  },
  {
    "binder": "ALKQKKIPPPFKPHL",
    "propertyLabel": "SPOT intensity",
    "reported": 0
  },
  {
    "binder": "SLSRRRFSLPSMPNV",
    "propertyLabel": "SPOT intensity",
    "reported": 28
  },
  {
    "binder": "VPPVPLPFGIPPFPM",
    "propertyLabel": "SPOT intensity",
    "reported": 129
  },
  {
    "binder": "AHFQPQRTAPKPPIS",
    "propertyLabel": "SPOT intensity",
    "reported": 13
  },
  {
    "binder": "GLRRARYKFPGQQKI",
    "propertyLabel": "SPOT intensity",
    "reported": 2
  },
  {
    "binder": "QPWTDQFEKLEKEVS",
    "propertyLabel": "SPOT intensity",
    "reported": 0
  },
  {
    "binder": "IHTRRPSSTSQYLIR",
    "propertyLabel": "SPOT intensity",
    "reported": 11
  }
]
